Each entry below carries its recorded %Inh.
tested on: PRKCE; settings: concentration: 1 μM, replicates: in singlicate; n = 1
Field format: number, assumed %, no unit text.

Some solved entries appear below for comparison.
compoundString: Nc1n[nH]c2ncc(-c3ccccc3)cc12
assayedTarget: PRKCE
%Inh (%): 16

compoundString: COc1ccc(-n2cnc3c(N)ncnc32)cc1
assayedTarget: PRKCE
%Inh (%): 0

compoundString: Cc1nnc(-c2ccc(C)c(-c3ccc(C(=O)O)cc3)c2)o1
assayedTarget: PRKCE
%Inh (%): 0

compoundString: O=C(NCCNc1ccnc(Nc2ccc(F)cc2)n1)Nc1ccc2c(c1)OCO2
assayedTarget: PRKCE
%Inh (%): 13

compoundString: Fc1cccc(CSc2nnc(-c3ccc4c(c3)CCO4)o2)c1
assayedTarget: PRKCE
%Inh (%): 0

compoundString: COc1cc(Nc2ccnc3ccc(C(F)(F)F)cc23)cc(OC)c1OC
assayedTarget: PRKCE
%Inh (%): 19

compoundString: Cc1cc(Nc2nc(-c3cccc(C)n3)nc3ccccc23)ccn1
assayedTarget: PRKCE
%Inh (%): 0

compoundString: Cc1cccc(-c2cc(-c3c[nH]nc3-c3ccccn3)ccn2)c1
assayedTarget: PRKCE;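 also: KINOMEscan kinase panel screen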
%Inh (%): 13

In: Answer with the recorded %Inh of COC(=O)c1c(-c2ccccc2)c2cc(Br)ccc2c(=O)n1Cc1ccc(S(C)(=O)=O)cc1 only.
Out: 1

In: Input Nc1ncnc2c1ncn2-c1cccc(F)c1 , output reported %Inh.
Out: 3
